target: wild type LRRK2 overexpressed in recombinant HEK-293T cells (Homo sapiens); assay: pS935 LRRK2 Cell Assay (HTRF, phospho-LRRK2 Ser935); settings: LRRK2 Inhibition, Table 8, 2 hours compound incubation
Sequence (Q5S007 whole entry): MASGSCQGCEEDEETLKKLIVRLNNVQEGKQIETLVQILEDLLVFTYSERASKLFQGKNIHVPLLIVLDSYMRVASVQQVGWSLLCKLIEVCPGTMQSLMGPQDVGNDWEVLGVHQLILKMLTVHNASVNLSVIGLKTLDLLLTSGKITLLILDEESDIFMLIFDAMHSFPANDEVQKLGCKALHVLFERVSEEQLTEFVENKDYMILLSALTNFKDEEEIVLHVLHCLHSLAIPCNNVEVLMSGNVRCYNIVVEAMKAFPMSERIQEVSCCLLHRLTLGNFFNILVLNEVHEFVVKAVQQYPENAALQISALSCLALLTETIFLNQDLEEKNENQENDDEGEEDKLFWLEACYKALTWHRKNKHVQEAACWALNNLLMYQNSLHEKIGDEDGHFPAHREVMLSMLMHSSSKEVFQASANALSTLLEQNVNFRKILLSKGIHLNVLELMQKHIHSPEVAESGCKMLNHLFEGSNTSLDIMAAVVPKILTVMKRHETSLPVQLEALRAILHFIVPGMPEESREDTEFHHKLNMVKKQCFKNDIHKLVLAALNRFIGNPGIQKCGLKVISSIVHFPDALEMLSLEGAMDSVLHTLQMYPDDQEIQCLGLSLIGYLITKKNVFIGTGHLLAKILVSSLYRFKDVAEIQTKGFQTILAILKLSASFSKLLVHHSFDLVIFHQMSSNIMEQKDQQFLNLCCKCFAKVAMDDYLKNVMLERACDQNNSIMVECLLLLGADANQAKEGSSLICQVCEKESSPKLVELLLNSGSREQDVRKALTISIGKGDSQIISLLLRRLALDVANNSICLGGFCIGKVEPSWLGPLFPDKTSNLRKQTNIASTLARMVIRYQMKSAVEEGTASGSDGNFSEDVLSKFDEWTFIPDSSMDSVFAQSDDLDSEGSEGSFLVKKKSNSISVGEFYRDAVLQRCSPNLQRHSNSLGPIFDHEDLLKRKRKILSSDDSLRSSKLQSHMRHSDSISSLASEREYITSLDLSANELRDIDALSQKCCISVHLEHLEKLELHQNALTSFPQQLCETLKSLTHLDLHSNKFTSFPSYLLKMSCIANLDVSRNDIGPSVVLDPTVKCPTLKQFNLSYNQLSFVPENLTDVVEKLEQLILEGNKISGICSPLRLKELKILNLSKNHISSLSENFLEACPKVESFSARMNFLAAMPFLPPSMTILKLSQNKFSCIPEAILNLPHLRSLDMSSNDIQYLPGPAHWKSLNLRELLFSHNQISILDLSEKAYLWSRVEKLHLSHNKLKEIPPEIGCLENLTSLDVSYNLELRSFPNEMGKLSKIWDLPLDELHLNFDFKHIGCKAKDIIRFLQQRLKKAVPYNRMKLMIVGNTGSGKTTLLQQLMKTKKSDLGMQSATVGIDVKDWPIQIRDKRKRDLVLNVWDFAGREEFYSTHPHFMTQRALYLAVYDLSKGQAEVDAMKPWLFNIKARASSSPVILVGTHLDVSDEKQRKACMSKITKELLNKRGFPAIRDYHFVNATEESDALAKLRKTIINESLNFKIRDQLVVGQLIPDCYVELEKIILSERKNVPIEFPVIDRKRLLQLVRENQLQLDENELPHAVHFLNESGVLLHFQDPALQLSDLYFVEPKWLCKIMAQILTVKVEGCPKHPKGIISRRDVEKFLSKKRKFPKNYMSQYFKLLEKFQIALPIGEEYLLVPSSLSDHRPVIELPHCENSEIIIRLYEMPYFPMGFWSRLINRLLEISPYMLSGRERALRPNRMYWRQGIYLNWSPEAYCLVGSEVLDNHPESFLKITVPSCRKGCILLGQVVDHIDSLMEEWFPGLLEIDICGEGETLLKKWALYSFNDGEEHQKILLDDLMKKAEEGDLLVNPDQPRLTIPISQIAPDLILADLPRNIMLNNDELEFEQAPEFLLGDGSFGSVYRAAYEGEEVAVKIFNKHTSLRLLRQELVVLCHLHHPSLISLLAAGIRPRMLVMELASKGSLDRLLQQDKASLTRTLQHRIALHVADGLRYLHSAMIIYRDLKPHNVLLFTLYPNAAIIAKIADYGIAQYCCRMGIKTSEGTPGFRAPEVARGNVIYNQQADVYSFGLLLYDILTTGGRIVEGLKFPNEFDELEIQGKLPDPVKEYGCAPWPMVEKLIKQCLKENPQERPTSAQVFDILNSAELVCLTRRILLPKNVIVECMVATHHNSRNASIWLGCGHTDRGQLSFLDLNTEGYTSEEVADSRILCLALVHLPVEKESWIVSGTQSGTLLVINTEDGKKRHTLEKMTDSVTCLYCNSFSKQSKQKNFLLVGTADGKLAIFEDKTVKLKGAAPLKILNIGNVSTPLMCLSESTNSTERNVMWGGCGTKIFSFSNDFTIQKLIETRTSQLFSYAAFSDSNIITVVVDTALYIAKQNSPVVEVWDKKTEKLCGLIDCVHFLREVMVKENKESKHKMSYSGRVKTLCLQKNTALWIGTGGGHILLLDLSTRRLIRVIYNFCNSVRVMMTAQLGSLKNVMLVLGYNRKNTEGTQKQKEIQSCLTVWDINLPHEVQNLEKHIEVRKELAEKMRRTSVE
I'd appreciate it if you could supply IC50 values for the items below.
Answers are plain numbers, in nM.

Please review the following examples before continuing.
In [3]: df
Out[3]:
                                   compound  reported_property  result_value
0  C[C@@H]1C[C@H](n2c([C@H]3CCN(C(=O)C4CC4)C3)nc3cnc4ccc(C#N)cc4c32)CCO1 [Compound 41]               IC50           639
1  C[C@@H]1C[C@H](n2c(CS(=O)(=O)C3CC3)nc3cnc4ccc(C5CC5)cc4c32)CCO1 [Compound 62]               IC50          1250
2  C[C@@H]1C[C@H](n2c(CC(=O)Nc3cnc(C(F)(F)F)n(C)c3=O)nc3cnc4ccc(C#N)cc4c32)CCO1 [Compound 220]               IC50          4.25

// for each compound below, give its IC50
1. C[C@@H]1C[C@H](n2c(CC(=O)Nc3cccn(CCO)c3=O)nc3cnc4ccc(C#N)cc4c32)CCO1 [Compound 225]
2. C[C@@H]1C[C@H](n2c(CC(=O)Nc3ccc(Cl)nc3)nc3cnc4ccc(C#N)cc4c32)CCO1 [Compound 297]
3. Cc1nc(C)c(NC(=O)Cc2nc3cnc4ccc(C#N)cc4c3n2[C@@H]2CCO[C@H](C)C2)c(C)n1 [Compound 253]
4. Cc1ccc(NC(=O)Cc2nc3cnc4ccc(C#N)cc4c3n2[C@@H]2CCO[C@H](C)C2)c(C)n1 [Compound 270]

[104, 3.99, 25.8, 7.36]
